Test system: PPARg:RXRa 30nM:10nM, anti-RXR (NR concentration 30 nM, RXRa partner concentration 10 nM)
Assay: PBM binding z-score (relative to random genomic background probes); higher = stronger binding; sequences stand for … in GC…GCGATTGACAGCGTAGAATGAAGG
Lab note: compare PBM binding z-score against 2. Equal or greater, write met. Smaller, write not met.

Examples with answers:
Residue string | Target desc | Category
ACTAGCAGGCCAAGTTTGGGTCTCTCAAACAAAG | PPARg:RXRa 30nM:10nM, anti-RXR (NR concentration 30 nM, RXRa partner concentration 10 nM) | not met
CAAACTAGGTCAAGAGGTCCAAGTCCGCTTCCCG | PPARg:RXRa 30nM:10nM, anti-RXR (NR concentration 30 nM, RXRa partner concentration 10 nM) | met
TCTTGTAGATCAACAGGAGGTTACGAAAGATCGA | PPARg:RXRa 30nM:10nM, anti-RXR (NR concentration 30 nM, RXRa partner concentration 10 nM) | met
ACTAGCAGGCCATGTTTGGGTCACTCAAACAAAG | PPARg:RXRa 30nM:10nM, anti-RXR (NR concentration 30 nM, RXRa partner concentration 10 nM) | not met
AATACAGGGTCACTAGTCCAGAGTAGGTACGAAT | PPARg:RXRa 30nM:10nM, anti-RXR (NR concentration 30 nM, RXRa partner concentration 10 nM) | not met
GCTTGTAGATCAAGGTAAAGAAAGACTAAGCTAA | PPARg:RXRa 30nM:10nM, anti-RXR (NR concentration 30 nM, RXRa partner concentration 10 nM) | not met

Prompt: PBM binding z-score >= 2 for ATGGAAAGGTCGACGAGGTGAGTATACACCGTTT ?
Response: not met

Prompt: PBM binding z-score >= 2 for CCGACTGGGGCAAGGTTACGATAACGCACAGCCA ?
Response: not met

Prompt: PBM binding z-score >= 2 for TCTTGTAGATCAATAGAGGTTAAGATAGTGCGCT ?
Response: met

Prompt: PBM binding z-score >= 2 for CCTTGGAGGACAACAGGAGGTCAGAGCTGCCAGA ?
Response: not met

Prompt: PBM binding z-score >= 2 for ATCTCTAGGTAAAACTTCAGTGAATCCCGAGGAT ?
Response: not met

Prompt: PBM binding z-score >= 2 for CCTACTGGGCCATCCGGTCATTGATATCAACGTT ?
Response: not met

Prompt: PBM binding z-score >= 2 for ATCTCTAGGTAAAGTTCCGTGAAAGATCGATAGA ?
Response: not met

Prompt: PBM binding z-score >= 2 for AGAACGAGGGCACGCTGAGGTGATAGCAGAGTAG ?
Response: not met

Prompt: PBM binding z-score >= 2 for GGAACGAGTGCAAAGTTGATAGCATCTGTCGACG ?
Response: not met

Prompt: PBM binding z-score >= 2 for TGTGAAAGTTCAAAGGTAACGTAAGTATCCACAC ?
Response: met

Prompt: PBM binding z-score >= 2 for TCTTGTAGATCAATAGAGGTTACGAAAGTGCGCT ?
Response: met

Prompt: PBM binding z-score >= 2 for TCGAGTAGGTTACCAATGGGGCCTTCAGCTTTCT ?
Response: not met

Prompt: PBM binding z-score >= 2 for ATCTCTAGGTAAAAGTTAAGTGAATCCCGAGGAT ?
Response: met

Prompt: PBM binding z-score >= 2 for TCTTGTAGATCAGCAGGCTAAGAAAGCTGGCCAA ?
Response: met

Prompt: PBM binding z-score >= 2 for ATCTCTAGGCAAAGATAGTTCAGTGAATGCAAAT ?
Response: not met

Prompt: PBM binding z-score >= 2 for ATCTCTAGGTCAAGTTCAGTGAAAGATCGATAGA ?
Response: met

Prompt: PBM binding z-score >= 2 for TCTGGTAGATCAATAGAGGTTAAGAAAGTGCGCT ?
Response: met

Prompt: PBM binding z-score >= 2 for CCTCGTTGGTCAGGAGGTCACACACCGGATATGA ?
Response: not met

Prompt: PBM binding z-score >= 2 for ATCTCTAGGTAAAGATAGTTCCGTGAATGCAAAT ?
Response: not met

Prompt: PBM binding z-score >= 2 for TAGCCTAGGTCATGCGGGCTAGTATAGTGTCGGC ?
Response: not met

Prompt: PBM binding z-score >= 2 for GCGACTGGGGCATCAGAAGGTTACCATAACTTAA ?
Response: not met

Prompt: PBM binding z-score >= 2 for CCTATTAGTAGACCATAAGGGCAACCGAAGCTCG ?
Response: not met

Prompt: PBM binding z-score >= 2 for AGAATGAGGTTAAGGTCAGGGAAACAGAATACAT ?
Response: met

====

Test system: LXRa homodimer (NR concentration 270 nM)
Assay: PBM binding z-score (relative to random genomic background probes); higher = stronger binding; sequences stand for … in GC…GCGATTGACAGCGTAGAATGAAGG
Quantity measured: PBM binding z-score
Lab note: record just the number, no unit beside it.

Example results:
Residue string | Target desc | Val
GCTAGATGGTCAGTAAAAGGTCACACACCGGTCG | LXRa homodimer (NR concentration 270 nM) | 4.31
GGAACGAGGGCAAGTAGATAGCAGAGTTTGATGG | LXRa homodimer (NR concentration 270 nM) | -0.397
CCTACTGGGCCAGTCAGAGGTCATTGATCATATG | LXRa homodimer (NR concentration 270 nM) | 5.39

Prompt: Indicate its recorded PBM binding z-score; the sequence in question is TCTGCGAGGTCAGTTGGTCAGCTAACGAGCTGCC
Response: 0.00554

Prompt: Indicate its recorded PBM binding z-score; the sequence in question is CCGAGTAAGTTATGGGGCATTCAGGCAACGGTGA
Response: -0.465

Prompt: Indicate its recorded PBM binding z-score; the sequence in question is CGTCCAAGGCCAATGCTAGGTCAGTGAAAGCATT
Response: 0.187

====

# PBM binding z-score listing for each entry below
Test system: VDR:RXRa (NR concentration 270 nM, RXRa partner concentration 90 nM)
Assay: PBM binding z-score (relative to random genomic background probes); higher = stronger binding; sequences stand for … in GC…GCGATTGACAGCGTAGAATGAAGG
Lab note: record just the number, no unit beside it.

Example results:
Residue string | PBM binding z-score
CGAACGAAGGCATGAGTTGATAGCAAATGCCGAT | -0.373
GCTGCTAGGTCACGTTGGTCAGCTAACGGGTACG | 2.29
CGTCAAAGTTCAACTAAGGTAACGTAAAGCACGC | 4.74
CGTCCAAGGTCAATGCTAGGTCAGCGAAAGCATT | 4.93
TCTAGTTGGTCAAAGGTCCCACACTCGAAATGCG | 1.12
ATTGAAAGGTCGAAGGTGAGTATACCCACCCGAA | 3.13
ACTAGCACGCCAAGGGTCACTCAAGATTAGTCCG | 2.97
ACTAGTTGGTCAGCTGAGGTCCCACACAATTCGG | -0.0724

Prompt: Indicate its recorded PBM binding z-score; the sequence in question is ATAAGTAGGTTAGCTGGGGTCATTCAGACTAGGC
Response: 5.98

Prompt: Indicate its recorded PBM binding z-score; the sequence in question is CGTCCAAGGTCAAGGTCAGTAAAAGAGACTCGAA
Response: 4.65

Prompt: Indicate its recorded PBM binding z-score; the sequence in question is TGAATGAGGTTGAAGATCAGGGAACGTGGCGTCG
Response: -0.171

Prompt: Indicate its recorded PBM binding z-score; the sequence in question is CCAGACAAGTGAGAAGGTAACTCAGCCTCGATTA
Response: 0.143

Prompt: Indicate its recorded PBM binding z-score; the sequence in question is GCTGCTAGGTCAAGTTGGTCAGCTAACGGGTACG
Response: 2.17

Prompt: Indicate its recorded PBM binding z-score; the sequence in question is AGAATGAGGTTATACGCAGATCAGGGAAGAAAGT
Response: 1.35

Prompt: Indicate its recorded PBM binding z-score; the sequence in question is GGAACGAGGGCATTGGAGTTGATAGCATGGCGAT
Response: 2.6

Prompt: Indicate its recorded PBM binding z-score; the sequence in question is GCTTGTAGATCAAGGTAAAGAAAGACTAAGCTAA
Response: -0.118

====

System: RARg:RXRa (NR concentration 270 nM, RXRa partner concentration 90 nM)
Test: PBM binding z-score (relative to random genomic background probes); higher = stronger binding; sequences stand for … in GC…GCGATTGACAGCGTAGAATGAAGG
Lab note: compare PBM binding z-score against 2. Equal or greater, write t. Smaller, write f.

Examples with answers:
Residue string | Category
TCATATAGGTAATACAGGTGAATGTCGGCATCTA | f
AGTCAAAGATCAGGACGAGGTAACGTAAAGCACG | f
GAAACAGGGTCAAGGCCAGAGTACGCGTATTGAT | t
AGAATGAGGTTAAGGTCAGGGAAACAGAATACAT | t
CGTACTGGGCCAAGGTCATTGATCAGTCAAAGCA | t

Now for another entry.
Prompt: PBM binding z-score >= 2 for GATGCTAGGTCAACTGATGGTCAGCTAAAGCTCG ?
Response: t

From: the supplement of paper PMC6555819
